Listing of entries alongside the reported IC50.
Tested on: HEK293
Test: Cytotoxicity against human HEK293 cells assessed as cell viability after 24 hrs by cell titer-blue assay
Type: cell-based
Setup Conditions: HEK293, 24 h
Write down the numeric answer in µM and omit the unit.

[[record]]
smi = "COc1c(O)cc2c(c1OC)-c1c(O)cccc1CC2"
readout = "IC50"
unit_abbrev = "µM"
readout_value = 289

[[record]]
smi = "COc1c(O)cc2c(c1OC)Oc1ccccc1CC2"
readout = "IC50"
unit_abbrev = "µM"
readout_value = 167

[[record]]
smi = "COc1cc(CCc2ccccc2O)cc(OC)c1OC"
readout = "IC50"
unit_abbrev = "µM"
readout_value = 113


Alright, here's another molecule for you.
Query COc1cc2c(c(O)c1OC)Oc1ccccc1CC2 yields IC50 of 355
